The values you see were collected from paper PMC9271048.

So I've got a bunch of compounds here, and I need their IC50 values.
# System: ShHTLs (10 HTL proteins in S. hermonthica)
# assay.remarks: YLG-based competition assay on HTL proteins of S. hermonthica
# Type: biochemical, Striga hermonthica
# run.parameters: ShHTL6; YLG competition; Supplementary Fig. 27; read-out: IC50, replicate 2
Give bare numbers, in µM.

Solved cases (4 shown):
1. CC1=CC(OC(=O)N2CCN(C(=O)COc3ccc(Br)cc3C)CC2)OC1=O (stereo not shown) [4a] ... 23.6
2. CC1=CC(CC(=O)N2CCN(C(=O)COc3ccc(Br)cc3C)CC2)OC1=O (stereo not shown) [4i] ... 55
3. CC1=C[C@H](O/C=C2/C(=O)O[C@@H]3c4ccccc4C[C@H]23)OC1=O (racemic) [rac-GR24, reference compound] ... 1.87
4. CC1=CC(OC(=O)N2CCN(C(=O)COc3ccc(Br)cc3C)CC2)CC1=O (stereo not shown) [4g] ... 37.4

Here is another compound to look at.
Q: Which IC50 value is on record for CC1=C[C@H](OC(=O)N2CCN(C(=O)COc3ccc(Br)cc3C)CC2)OC1=O [(S)-4a] ?
Result: 6.62

----------
# assay.remarks: Chemical reactivity analysis (HPLC, methanol/PBS pH 7.4)
# Assay type: physicochemical
# run.parameters: methanol/phosphate-buffered saline mixture; Supplementary Fig. 10 source data; methanol/PBS pH 7.4, 26 °C; read-out: half-life time (t1/2), source data average (converted)
property: half-life at 0.5 mM (h)
One number for each entry, in h.

Solved cases (2 shown):
1. CC1=C[C@@H](OC(=O)N2CCN(C(=O)COc3ccc(Br)cc3C)CC2)OC1=O [(R)-4a] ... 6.99
2. CC1=C[C@H](OC(=O)N2CCN(C(=O)COc3ccc(Br)cc3C)CC2)OC1=O [(S)-4a] ... 7.71

Here is another compound to look at.
Q: Which half-life at 0.5 mM value is on record for CC1=CC(OC(=O)N2CCN(C(=O)COc3ccc(Br)cc3C)CC2)OC1=O (stereo not shown) ?
Result: 3.38

----------
# System: PaKAI2s (5 KAI2 protein homologs in P. aegyptiaca)
# assay.remarks: YLG-based competition assay on KAI2 protein homologs of P. aegyptiaca
# Format: biochemical, Phelipanche aegyptiaca
# run.parameters: KAI2d2; YLG competition; Supplementary Fig. 27; read-out: IC50, replicate 1
So I've got a bunch of molecules here, and I need their pIC50 values.
One number for each entry, as −log10 of the molar value.

Solved cases (5 shown):
1. CC1=CC(OC(=O)N2CCN(C(=O)COc3ccc(Br)cc3C)CC2)N(C)C1=O (stereo not shown) [4h] ... 4.15
2. CC1=CC(OC(=O)N2CCN(C(=O)COc3ccc(Br)cc3C)CC2)CC1=O (stereo not shown) [4g] ... 4.21
3. CC1=CC(CC(=O)N2CCN(C(=O)COc3ccc(Br)cc3C)CC2)OC1=O (stereo not shown) [4i] ... 4.27
4. CC1=CC(OC(=O)N2CCN(C(=O)COc3ccc(Br)cc3C)CC2)OC1=O (stereo not shown) [4a] ... 4.39
5. CC1=C[C@H](OC(=O)N2CCN(C(=O)COc3ccc(Br)cc3C)CC2)OC1=O [(S)-4a] ... 4.38

Here is another molecule to look at.
Q: Observed pIC50 on PaKAI2s (5 KAI2 protein homologs in P. aegyptiaca) for CC1=C[C@H](O/C=C2/C(=O)O[C@@H]3c4ccccc4C[C@H]23)OC1=O (racemic) [rac-GR24, reference compound] , please.
Result: 5.29
